# System: K-562 leukemia
# Measurement Description: NCI tumour cell line growth inhibition, 48 h
Result Type: TGI

INSERT INTO assay_data (molecule, result_type, assay_result) VALUES
  ('CCC(=O)NI1OC(=O)c2ccccc21', 'TGI', '> 100 µM'),
  ('CN(C)C1(N(C)C)Oc2c(c(=O)n(C)c(=O)n2C)C(c2ccc(C(F)(F)F)cc2)C1(F)F (stereo not given)', 'TGI', '> 100 µM'),
  ('CCOC(=O)C(C)Sc1nnc(COc2ccc(Cl)cc2)n1-c1ccccc1 (stereo not given)', 'TGI', '49.9 µM'),
  ('C[P+](C)(C)C', 'TGI', '> 100 µM'),
  ('COC(=O)c1c(C)[nH]c2c1C(=O)C(=O)c1nc(C)c(C)nc1-2', 'TGI', '> 100 µM'),
  ('O=C1CNC(=O)/C(=C/c2c[nH]c3ccccc23)N1', 'TGI', '> 100 µM'),
  ('COc1cc2cc(C(=O)N3CC(CCl)c4ccc([N+](C)(C)Cc5ccc([N+](=O)[O-])cc5)cc43)[nH]c2c(OC)c1OC (stereo not given)', 'TGI', '5.61 µM'),
  ('Cc1cc(C(=O)/C=C/c2ccc[nH]2)ccc1-n1ccc(C(F)(F)F)n1', 'TGI', '> 100 µM'),
  ('CCN(CC)c1c(-c2ccccc2)n[nH]c1C(=O)OC', 'TGI', '> 100 µM'),
  ('Nc1c(C(=O)Nc2ccccn2)sc2nc3c(cc12)C(O)CCC3 (stereo not given)', 'TGI', '> 50 µM'),
  ('C=C(Cl)/C(=C\Cl)CCC(Cl)C(C)C (stereo not given)', 'TGI', '> 100 µM'),
  ('Nc1c(OCC(=O)O)ccc2cc(S(=O)(=O)O)ccc12', 'TGI', '> 100 µM'),
  ('OC(c1ccc(Cl)cc1)(c1ccc(Cl)cc1)c1cncnc1', 'TGI', '69.8 µM'),
  ('Cc1ccc(S(=O)(=O)NC(=O)Nc2cccc(S(N)(=O)=O)c2)cc1', 'TGI', '> 100 µM'),
  ('O=c1c2cc(Br)cc(Br)c2nc(CCCl)n1-c1ccc(O)c([N+](=O)[O-])c1', 'TGI', '61.9 µM'),
  ('CCCCN(CCCC)CCC(O)c1cc(-c2ccc(C(F)(F)F)cc2)nc(-c2ccc(C(F)(F)F)cc2)c1 (stereo not given)', 'TGI', '> 100 µM'),
  ('NCCCCCNc1noc(Cc2c[nH]c3cc(Br)ccc23)n1', 'TGI', '14.7 µM'),
  ('O=NN1C(c2ccccc2)C2CCCC(C2=O)C1c1ccccc1 (stereo not given)', 'TGI', '55.3 µM'),
  ('CC(C)=Cc1cc(C)c2c3c(c(O)c(O)c(C)c13)C(C)=CC2=O', 'TGI', '> 100 µM'),
  ('C/C(=N\NC(=O)C[N+](C)(C)C)c1sc(-c2cccnc2)nc1C', 'TGI', '> 100 µM'),
  ('C[N+](C)(C)CC1CCC(C[N+](C)(C)C)C1=O (stereo not given)', 'TGI', '1.34 µM'),
  ('O=C1c2c(O)cc(O)cc2C(C2OC(CO)C(O)C(O)C2O)c2cc(CO)cc(O)c21 (stereo not given)', 'TGI', '> 100 µM'),
  ('O=C(Cc1nc2sc3c(c2c(=O)[nH]1)CCCC3)Nc1ccccc1', 'TGI', '> 100 µM'),
  ('CN(CCO)Cc1ncccc1O', 'TGI', '> 100 µM'),
  ('CCOC(=O)c1nc2ccccc2nc1NCc1ccc(OC)c(OC)c1', 'TGI', '> 100 µM'),
  ('O=C1C[C@H](COCc2ccccc2)NC(=O)C[C@H](COCc2ccccc2)NC(=O)C[C@H](COCc2ccccc2)N1', 'TGI', '> 100 µM'),
  ('O=C1CCCC/C1=C1/SC(=Nc2ccccc2)C(=Nc2ccccc2)N1c1ccccc1', 'TGI', '> 100 µM'),
  ('CNC(=O)N(CCC#N)CCN(C(=O)N(C)C)c1ccccc1', 'TGI', '> 100 µM'),
  ('COc1ccc2c(c1)c1c(n2CCN2CCOCC2)-c2cccc(OC)c2CC1', 'TGI', '> 100 µM'),
  ('COc1cc(-n2cc(-c3ccccc3)[nH]c2=O)cc(OC)c1OC', 'TGI', '> 100 µM'),
  ('Cc1cc(S(=O)(=O)Nc2nnc3c4ccccc4cnn23)c(S)cc1Cl', 'TGI', '> 100 µM'),
  ('O=C1CCC(=O)N1CNc1ccc2c(c1)S(=O)(=O)c1ccccc1O2', 'TGI', '> 100 µM'),
  ('O=S(=O)(O)c1cc(S(=O)(=O)O)c2cc(N=Nc3c(O)ccc4ccccc34)ccc2c1', 'TGI', '> 100 µM'),
  ('COC(=O)C1CCC(=O)N1CN(C(C)=O)c1cc(OC)ccc1OC (stereo not given)', 'TGI', '> 100 µM'),
  ('COC(=O)CN(CC(O)C(NC(C)=O)C(O)C=O)C(=O)OCc1ccccc1 (stereo not given)', 'TGI', '> 100 µM');

----------
# Test system: SNB-19 CNS
# Measurement Description: NCI tumour cell line growth inhibition, 48 h
Overview of recorded GI50 for various compounds
Result Type: GI50

INSERT INTO results (compound, result_type, assay_result) VALUES
  ('COc1cc(Cl)cc(-c2nn(-c3cccc(NC(=O)Nc4cccc(C(F)(F)F)c4)c3)cc2-c2ccncc2)c1', 'GI50', '2770 nM'),
  ('CCC1C(C)C=NN1c1nc(N)nc(C(C#N)=Nc2ccc(N(C)C)cc2)n1 (centres undefined)', 'GI50', '> 50000 nM'),
  ('CC(C)(C)OC(=O)NCCCCn1c2c(c3ccccc3c1=O)C(=O)c1ccccc1-2', 'GI50', '25100 nM'),
  ('COc1cccc(-c2nn(-c3ccccc3)cc2-c2ccnc(NCCCNC(=O)c3cccc(C(F)(F)F)c3)c2)c1', 'GI50', '6030 nM'),
  ('Nc1nonc1-c1nc2ccccc2n1Cc1ccc(F)cc1', 'GI50', '14600 nM'),
  ('Nc1c(C(=O)Nc2ccccn2)sc2nc3c(cc12)C(O)CCC3 (centres undefined)', 'GI50', '2130 nM'),
  ('O=[N+]([O-])c1cccc(-c2nc(-c3ccc(Cl)cc3Cl)cn2-c2ccccc2)c1', 'GI50', '2550 nM'),
  ('CNCC/C=C1\c2cc3c(cc2-c2c1c1cc(OC)c(OC)cc1c(=O)n2C)OCO3', 'GI50', '1080 nM'),
  ('NCCCOc1cc2ccccc2cc1C(=O)Nc1ccc(Cl)cc1OC(=O)c1cc2ccccc2cc1OCCCN', 'GI50', '766 nM');

----------
# Tested on: MALME-3M melanoma
# Measurement Description: NCI tumour cell line growth inhibition, 48 h
Result Type: TGI

INSERT INTO measurements (molecule, assayed_system, assay_result) VALUES
  ('CCOC(=O)C1C=C2O[C@@H]3OC4(CCCCC4)O[C@@H]3C2C2C(=O)CCC(=O)[C@@]12C(=O)OC (some centres undefined)', 'MALME-3M melanoma', '> 100 µM'),
  ('O=c1[nH]c2cc([N+](=O)[O-])ccc2nc1/C(=N/Nc1ccccc1)C(O)c1ccco1 (centres undefined)', 'MALME-3M melanoma', '> 100 µM'),
  ('COC(=O)CCC1=NCC(C)(C)O1', 'MALME-3M melanoma', '> 10 µM'),
  ('CCOc1ccccc1NC(=O)C(=O)C(/C(=N/N)C(=O)OC)c1nc2ccc([N+](=O)[O-])cc2[nH]c1=O (centres undefined)', 'MALME-3M melanoma', '> 100 µM');

----------
Overview of recorded TGI for various compounds
# Test system: SK-MEL-2 melanoma
# Measurement Description: NCI tumour cell line growth inhibition, 48 h
Result Type: TGI

INSERT INTO results (compound, result_type, assay_result) VALUES
  ('C[C@@H]1[C@H](O)CC2=C(CC[C@@H](O)C2(C)C)[C@@]1(CO)CCc1ccoc1', 'TGI', '> 50 µM'),
  ('CCN(CC)Cc1ccccc1CC(=O)N1c2ccccc2C(=O)Nc2cccnc21', 'TGI', '> 100 µM'),
  ('O=C1CC[C@H](N2Cc3c(OCc4ccc(CN5CCOCC5)cc4)cccc3C2=O)C(=O)N1', 'TGI', '> 100 µM'),
  ('CC[C@@]1(OC(=O)CN(C)C)C(=O)OCc2c1cc1n(c2=O)Cc2cc3c(N)cccc3nc2-1', 'TGI', '> 100 µM'),
  ('COC(=O)CN(CC(O)C(NC(C)=O)C(O)C=O)C(=O)OCc1ccccc1 (stereo unspecified)', 'TGI', '> 100 µM'),
  ('Cc1c[nH]c(C(=O)O)c1-c1cccn1-c1ccc(Cl)cc1[N+](=O)[O-]', 'TGI', '> 100 µM');
